# herbicidal effect rating, CYPIR annotations
# Tested on: Cyperus iria
# Test name: Preemergence weed control under flooded paddy conditions, CYPIR (Rice Flatsedge); further: meaning of each grade not given here
# Format: in vivo
# Condition info: 0.0313 kg/ha; preemergence, flooded paddy; rated three to four weeks after treatment
Reply with just the number.

Examples with answers:
COC(=O)COc1cc(C)c(C)cc1-c1nsc2ccc(-n3c(=O)cc(C(F)(F)F)n(C)c3=O)cc12 [Example 12]	9.0
Cc1ccc(OCC(=O)OCC#Cc2ccccc2)c(-c2nsc3ccc(-n4c(=O)cc(C(F)(F)F)n(C)c4=O)cc23)c1 [Example 73]	2.0
COc1cc(C)ccc1-c1nsc2ccc(-n3c(=O)cc(C(F)(F)F)n(C)c3=O)cc12 [Example 7]	9.0
COC(=O)C(C)Oc1ccc(C(C)C)cc1-c1nsc2ccc(-n3c(=O)cc(C(F)(F)F)n(C)c3=O)cc12 (stereo not drawn) [Example 30]	2.0
COC(=O)C(C)Oc1c(C)cc(C)cc1-c1nsc2ccc(-n3c(=O)cc(C(F)(F)F)n(C)c3=O)cc12 (stereo not drawn) [Example 27]	2.0
Cc1ccc(OCC(=O)OC(C)(C)C)c(-c2nsc3ccc(-n4c(=O)cc(C(F)(F)F)n(C)c4=O)cc23)c1 [Example 68]	7.0

INPUT: Can you look up the measured herbicidal effect rating, CYPIR of COc1cc(C)c(C)c(C)c1-c1nsc2ccc(-n3c(=O)cc(C(F)(F)F)n(C)c3=O)cc12 [Example 34] for me?
OUTPUT: 0.0

INPUT: Can you look up the measured herbicidal effect rating, CYPIR of COc1ccc(C(C)C)cc1-c1nsc2ccc(-n3c(=O)cc(C(F)(F)F)n(C)c3=O)cc12 [Example 46] for me?
OUTPUT: 2.0

INPUT: Can you look up the measured herbicidal effect rating, CYPIR of C=CCOC(=O)COc1ccc(C)cc1-c1nsc2ccc(-n3c(=O)cc(C(F)(F)F)n(C)c3=O)cc12 [Example 69] for me?
OUTPUT: 0.0

INPUT: Can you look up the measured herbicidal effect rating, CYPIR of Cn1c(C(F)(F)F)cc(=O)n(-c2ccc3onc(-c4ccccc4)c3c2)c1=O [Example 25] for me?
OUTPUT: 9.0

INPUT: Can you look up the measured herbicidal effect rating, CYPIR of Cc1ccc(OCC#N)c(-c2nsc3ccc(-n4c(=O)cc(C(F)(F)F)n(C)c4=O)cc23)c1 [Example 57] for me?
OUTPUT: 9.0

INPUT: Can you look up the measured herbicidal effect rating, CYPIR of CCc1ccc(-c2nsc3ccc(-n4c(=O)cc(C(F)(F)F)n(C)c4=O)cc23)cc1 [Example 5] for me?
OUTPUT: 9.0
